# Target Entity: cynomolgus TSLPR on Ba/F3-cTSLPR-cIL7Ra cells (cynomolgus monkey)
# Method: cell-based or functional assay
Quantity: IC50 Assay II, Ba/F3-cyTSLPR proliferation (µg/mL)
# output: bare number, implied unit µg/mL

*Q* What value of IC50 Assay II, Ba/F3-cyTSLPR proliferation has been reported for the following binder? mouse antibody 49A5 (antibody, mouse IgG1, V domains shown, Mouse IgG1/kappa from hybridoma; also called m49A5; LB55.49A5.2F9) VH: QVQLKQSGPGLVQPSQSLSITCTVSGFSLTTYGVHWVRQSPGKGLEWLGVIWRGGNTAYNPAFMSRLSITKDNSKSQVFFKMNSLQADDTAIYHCAKKSYYGYHAMGYWGQGTSVTVSS VL: DIQMTQTTSSLSASLGDRVTINCRASQDISNYLNWYQQNPDGTVKLLIYYTSRLHSGVPSRFSGSGSGTDYSLTISNLEQEDIATYFCQQANTLPWTFGGGTKLEIKR
*A* 0.246
